Test system: MOLT-4
Test: NCI tumour cell line growth inhibition, 48 h
Activity calls are given as the source filed them. Cut-off read from the data, not from the text of the source: active = GI50 up to about 1.1 µM and inactive = higher.
readout.kind: GI50

[
  {
    "molecule": "CCCCc1ccc(Nc2nc(Cl)c3ccn(C4CC(Oc5ccc(C)cc5)C(COc5ccc(C)cc5)O4)c3n2)cc1 (stereo not given)",
    "readout.kind": "GI50",
    "value.reported": "> 46.5 µM (inactive)"
  },
  {
    "molecule": "COc1ccc(SS(=O)(=O)c2ccc(OC)cc2)cc1",
    "readout.kind": "GI50",
    "value.reported": "13.2 µM (inactive)"
  },
  {
    "molecule": "CCN(CC)C(=S)Oc1cc2oc(=O)cc(C)c2cc1Cl",
    "readout.kind": "GI50",
    "value.reported": "> 100 µM (inactive)"
  },
  {
    "molecule": "CC(C)(CO)CNc1nc(N)nc(Cl)c1/C=N/O",
    "readout.kind": "GI50",
    "value.reported": "17 µM (inactive)"
  }
]

Parameters: items (list). Returns: GI50 for each item.
1. CC1C2C=CC1C(c1c3ccc(=O)c(O)c-3oc3c(O)c(O)ccc13)C2C(=O)O (stereo not given)
2. O=C(c1cccc(F)c1F)N1CCc2c([nH]c3ccccc23)C1c1ccc2c(c1)OCO2 (stereo not given)
3. CCOC(=O)c1c(C)nc2c(c1-c1cn(-c3ccccc3)nc1-c1ccccc1)C(=O)c1ccccc1-2
4. O=C(/C=C/c1c[nH]c2ccccc12)c1ccccc1O
5. CN(C)c1ccc(/C=N/C23CC4CC(CC(C4)C2)C3)cc1

["21.6 µM (inactive)", "5.24 µM (inactive)", "> 100 µM (inactive)", "7.41 µM (inactive)", "> 100 µM (inactive)"]

Find the measured GI50 of c1ccc2sc(C3(N4CCCCC4)CCCCCC3)cc2c1 with MOLT-4 as test system.
15.2 µM (inactive)

====

System: Hs-578T
Assay: NCI tumour cell line growth inhibition, 48 h
Active and inactive are the calls of the source. No stated cut-off is given here; in the data, active = GI50 up to about 1.1 µM and inactive = higher.
Permitted responses: true = active, false = inactive

[
  {
    "molecule": "N=C(N)CCNC(=O)C1CCC(N)=N1 (stereo not given)",
    "class.label": "false"
  }
]

Could you kindly confirm the outcome this assay logged for N#Cc1[nH]c(=S)[nH]c1N ?
false

Could you kindly confirm the outcome this assay logged for O=c1[nH]c2c(Nc3c4ccccc4nc4ccccc34)c([N+](=O)[O-])c(Nc3c4ccccc4nc4ccccc34)c([N+](=O)[O-])c2[nH]1 ?
false

Could you kindly confirm the outcome this assay logged for Cc1cc2c(cc1C)C(=O)C1(C2)Cc2cc3c(cc2C1=O)CCC3 (stereo not given) ?
false

Could you kindly confirm the outcome this assay logged for Cc1ccc2nc(-c3ccc(N4C(=O)C(Cl)C4c4ccc(Cl)cc4)cc3)sc2c1 (stereo not given) ?
false

Could you kindly confirm the outcome this assay logged for CCOP(=O)(CN1CCNCCNCC1)OCC ?
false

====

Please provide measured GI50 for the entries that follow.
Test system: MDA-MB-435
Test: NCI tumour cell line growth inhibition, 48 h
Active and inactive are the calls of the source. No stated cut-off is given here; in the data, active = GI50 up to about 1.1 µM and inactive = higher.

Solved entries:
[
  {
    "molecule": "COc1ccc(NC(=O)CC(=O)NNC(Sc2ccccc2)c2cc(/N=N/c3ccc(Br)cc3)ccc2O)cc1 (stereo not drawn)",
    "value.reported": "> 10 µM (inactive)"
  },
  {
    "molecule": "O=C(Nc1ccccc1)C(=O)C(C(=O)c1ccccc1)C(c1ccccc1)c1ccccc1 (stereo not drawn)",
    "value.reported": "> 10 µM (inactive)"
  }
]

Would you kindly look at the next entry?
Item O=C(O)CCCc1ccc2ccccc2c1 : provide GI50
> 100 µM (inactive)
